- System: MOLT-4
- ASSAY_NOTES: NCI tumour cell line growth inhibition, 48 h
Active and inactive are the calls of the source. Cut-off read from the data, not from the text of the source: active = GI50 up to about 1.1 µM and inactive = higher.
Parameter call: string, one of active, inactive

Example cases with answers are listed next.
[[record]]
compound = "N#C[C@H]1C(=O)C(c2nc3ccccc3[nH]2)S[C@H]1c1ccccc1 (some centres undefined)"
category = "inactive"

[[record]]
compound = "C=C1CCCCCCCCCCC1[S+]([O-])c1ccccc1 (centres undefined)"
category = "inactive"

[[record]]
compound = "CN(C)CCNC(=O)c1cccc2nc3c(C(=O)NCCN(C)C)cccc3nc12"
category = "active"


Q: Hello, I am checking results. What call was entered for CC1(C)N=C(c2ccccc2)SC12S[C@@H]1CCCC[C@H]1S2 ?
Ans: inactive

Q: Hello, I am checking results. What call was entered for C=C1CC2[C@H](C)C(=O)CCC2(C)C2=C1C1CCC(C(C)CCC(=C)C(C)C(=O)O)C1(C)CC2=O (some centres undefined) ?
Ans: inactive

Q: Hello, I am checking results. What call was entered for CC1(C)OC2C(O1)[C@H]1OC(C(Cl)(Cl)Cl)=N[C@H]1C(I)[C@H]2N1C(=O)c2ccccc2C1=O (some centres undefined) ?
Ans: inactive

Q: Hello, I am checking results. What call was entered for CC(=O)OCC1OC(Nc2ccc3nc(C)n(-c4cccc(C)c4)c(=O)c3c2)C(OC(C)=O)C(OC(C)=O)C1OC(C)=O (centres undefined) ?
Ans: inactive

----------
- Test system: 786-0
- ASSAY_NOTES: NCI tumour cell line growth inhibition, 48 h
Activity calls are given as the source filed them. No stated cut-off is given here; in the data, active = GI50 up to about 1.1 µM and inactive = higher.
Give GI50 for every item shown.

Solved cases below.
[[record]]
molecule = "N#Cc1c(-c2ccc([N+](=O)[O-])cc2)c(C#N)c(=O)n(NS(=O)(=O)c2ccccc2)c1-c1ccccc1"
result = "> 100 µM (inactive)"

[[record]]
molecule = "Cc1cc(S(=O)(=O)NC2=Nc3cccc4cccc(c34)N2)c(S)cc1Cl"
result = "84.5 µM (inactive)"


Proceeding to the next compound to report its GI50.
Q: Find the recorded GI50 belonging to COc1cc(OC)c(-c2oc3ccccc3c(=O)c2O)c(OC)c1 and report it.
Ans: 13.4 µM (inactive)

----------
- Tested on: SK-MEL-2
- ASSAY_NOTES: NCI tumour cell line growth inhibition, 48 h
The source made the active and inactive calls. No stated cut-off is given here; in the data, active = GI50 up to about 1.1 µM and inactive = higher. Where a SMILES comes first, the peptide text is derived from it. The star is where a group is joined. Boc = CC(C)(C)OC(=O)*; tBu = CC(C)(C)*
Give GI50 for every item shown.

Solved cases below.
[[record]]
compound = "COC(=O)CCC(=O)NC1=C(NCc2ccccc2)C(=O)c2ccccc2C1=O"
result = "18.8 µM (inactive)"

[[record]]
compound = "O=C(NCP(=O)(O)O)c1cccnc1"
result = "> 100 µM (inactive)"

[[record]]
compound = "CC(OC(C)(C)C)C(NC(=O)C(N)CCCCNC(=O)OC(C)(C)C)C(=O)NC(Cc1ccccc1)C(=O)O (stereo not given) (H-Lys(Boc)-Thr(tBu)-Phe-OH; configuration not given here)"
result = "> 100 µM (inactive)"

[[record]]
compound = "CCC(=O)N1C(=O)C(CC)(CC)C(=O)N1C(=O)CC"
result = "> 100 µM (inactive)"

[[record]]
compound = "O=C(O)Cn1c(=O)[nH]c(=O)c2c1ncn2Cc1ccccc1"
result = "> 100 µM (inactive)"


Can you give me GI50 for all of these, one by one?
1. COc1ccc(-c2cc(C3CC3)nc(SCC(=O)O)c2C#N)cc1
2. CCOC(=O)c1cn2c(n1)sc1cc(C)c(C)cc12
3. CC(c1ccccc1)N1CCN(C(C)c2ccccc2)CC1 (stereo not given)
4. O=C(NC12CC3CC(CC(C3)C1)C2)C(=O)c1c[nH]c2ccc(Br)cc12

Ans:
["> 100 µM (inactive)", "31.6 µM (inactive)", "35.2 µM (inactive)", "56.9 µM (inactive)"]

Can you give me GI50 for all of these, one by one?
1. NC(=O)c1cccc(OCC(O)CO)c1 (stereo not given)
2. CSc1nnc2n1-c1ccccc1SCC2

Ans:
> 100 µM (inactive)
> 100 µM (inactive)

Can you give me GI50 for all of these, one by one?
1. C[C@H]1C2Cc3cc(N)ccc3[C@@]1(C)CCN2CCc1ccccc1
2. CC1(C)N=C(c2ccccc2)SC12S[C@@H]1CCCC[C@H]1S2
3. C#CCN(C(=O)C(F)(F)F)C(/C=C\C(=O)OC)(C(=O)OCC)C(=O)OCC
4. Cc1ccc(-c2n[nH]c(=O)n2/N=C\c2ccc([N+](=O)[O-])cc2)cc1
5. OC(CCNCc1ccccc1)c1ccc2ccccc2c1 (stereo not given)
6. S=C(N/N=C(/c1ccccc1)c1ccccn1)N(Cc1ccccn1)Cc1ccccn1
7. CNC(=O)OC(C)CN1c2ccccc2Sc2ccc(Cl)cc21 (stereo not given)
8. Cc1nn(C(=O)c2ccncc2)c2c1C(c1ccccc1)SC(=N)N2 (stereo not given)

Ans:
["50.7 µM (inactive)", "> 100 µM (inactive)", "> 100 µM (inactive)", "> 100 µM (inactive)", "20.5 µM (inactive)", "1.28 µM (inactive)", "> 10 µM (inactive)", "> 10 µM (inactive)"]

Q: Find the recorded GI50 belonging to Cc1ccc(O)c(-c2cscn2)c1 and report it.
Ans: 64 µM (inactive)

----------
- Test system: COLO 205
- ASSAY_NOTES: NCI tumour cell line growth inhibition, 48 h
The source made the active and inactive calls. Cut-off read from the data, not from the text of the source: active = GI50 up to about 1.1 µM and inactive = higher.
Parameter call: string, one of active, inactive

[[record]]
molecule = "COc1cc2c(c(OC)c1OC)-c1ccc(OC)c(=O)cc1C(NC(=O)c1ccc(N=[N+]=[N-])cc1)CC2 (configuration not stated)"
tested_system = "COLO 205"
category = "active"


Q: Hello, I am checking results. What call was entered for COc1cc2c(cc1OC)C(C(=O)c1cccc(OC)c1OC)C(=O)N(C)CC2 (configuration not stated) ?
Ans: inactive

Q: Hello, I am checking results. What call was entered for CN1CCN(CCCCN2c3ccccc3Sc3ccc(C(=O)c4ccccc4)cc32)CC1 ?
Ans: inactive

Q: Hello, I am checking results. What call was entered for O=c1cc(-c2ccccc2)oc2cc(OCCSCCCCCCCCCCSCCOc3ccc4c(=O)cc(-c5ccccc5)oc4c3)ccc12 ?
Ans: inactive

Q: Hello, I am checking results. What call was entered for CSc1nc(NC2OCC(OC(C)=O)C(OC(C)=O)C2OC(C)=O)c(/N=C(\C)C(C)=O)c(=O)[nH]1 (configuration not stated) ?
Ans: inactive

Q: Hello, I am checking results. What call was entered for CCOc1cc2c(cc1O)/C(=N\O)C[C@@H]1[C@@H]2CC[C@]2(C)[C@@H](O)CC[C@@H]12 ?
Ans: inactive

Q: Hello, I am checking results. What call was entered for O=C(NCCO)c1c(O)c2ccccc2[nH]c1=O ?
Ans: inactive

Q: Hello, I am checking results. What call was entered for Cc1c2c(Cl)c3c(c(Cl)c2c(C)c2c(Cl)c4c(c(Cl)c12)C(c1ccccc1)(c1ccccc1)C4(c1ccccc1)c1ccccc1)C(c1ccccc1)(c1ccccc1)C3(c1ccccc1)c1ccccc1 ?
Ans: inactive

Q: Hello, I am checking results. What call was entered for O=C(NCCCN(CCCCN(CCCNC(=O)C(F)(F)F)Cc1ccc2ccccc2c1)Cc1ccc2ccccc2c1)C(F)(F)F ?
Ans: inactive

Q: Hello, I am checking results. What call was entered for SC1CCCN(Cc2ccccc2)C1 (configuration not stated) ?
Ans: inactive

Q: Hello, I am checking results. What call was entered for Cc1ccc(NC(=O)CSc2nnc(-c3ccc(/N=C\c4ccc(Cl)cc4)cc3)o2)cc1 ?
Ans: inactive

Q: Hello, I am checking results. What call was entered for NCCCC1NC(=O)/C(=C(O)/C=C/C2CCC[C@@H]2CC2SCCS2)C1=O (some centres not stated) ?
Ans: inactive

----------
Give GI50 for every item shown.
- System: SW-620
- ASSAY_NOTES: NCI tumour cell line growth inhibition, 48 h
Active and inactive are the calls of the source. Cut-off read from the data, not from the text of the source: active = GI50 up to about 1.1 µM and inactive = higher.

[[record]]
molecule = "COc1ccc2c(c1)CCc1[nH]c3ccccc3c1CCCC2"
result = "> 10 µM (inactive)"


Can you give me GI50 for all of these, one by one?
1. Cc1cccc(C)c1NC(=O)/C(CC(=O)CC(c1ccccc1)c1c(O)c2ccccc2oc1=O)=N/O (stereo not drawn)
2. O=C(O)c1[nH]c(C(=O)O)c(CC(F)(F)C(F)(F)C(F)(F)F)c1CC(F)(F)C(F)(F)C(F)(F)F

Ans:
["> 100 µM (inactive)", "> 100 µM (inactive)"]

----------
Give GI50 for every item shown.
- Tested on: MOLT-4
- ASSAY_NOTES: NCI tumour cell line growth inhibition, 48 h
The source made the active and inactive calls. Cut-off read from the data, not from the text of the source: active = GI50 up to about 1.1 µM and inactive = higher.

Solved cases below.
[[record]]
compound = "CN1CCN(CCCCN2c3ccccc3Sc3ccc(C(=O)c4ccccc4)cc32)CC1"
result = "1.71 µM (inactive)"

[[record]]
compound = "OC(CCNCc1ccccc1)c1ccc2ccccc2c1 (stereo not given)"
result = "31.1 µM (inactive)"

[[record]]
compound = "COc1ccc(/C=C/C(=O)c2cc(OC)cc(OC)c2)cc1"
result = "4.63 µM (inactive)"

[[record]]
compound = "O=C(NCP(=O)(O)O)c1cccnc1"
result = "> 100 µM (inactive)"


Q: Find the recorded GI50 belonging to O=C(NC(Cl)(C(F)(F)F)C(F)(F)F)c1ccc(F)cc1 and report it.
Ans: > 100 µM (inactive)
